Reference for the values: patent US20230066011A1

Each record here notes measured remaining binding at 1 µM.
tested_target: CSNK1D (Homo sapiens)
Construct: purchased DiscoverX Corp. (ScanMAX Kinase analysis panel, service)
Sequence (P48730 whole entry): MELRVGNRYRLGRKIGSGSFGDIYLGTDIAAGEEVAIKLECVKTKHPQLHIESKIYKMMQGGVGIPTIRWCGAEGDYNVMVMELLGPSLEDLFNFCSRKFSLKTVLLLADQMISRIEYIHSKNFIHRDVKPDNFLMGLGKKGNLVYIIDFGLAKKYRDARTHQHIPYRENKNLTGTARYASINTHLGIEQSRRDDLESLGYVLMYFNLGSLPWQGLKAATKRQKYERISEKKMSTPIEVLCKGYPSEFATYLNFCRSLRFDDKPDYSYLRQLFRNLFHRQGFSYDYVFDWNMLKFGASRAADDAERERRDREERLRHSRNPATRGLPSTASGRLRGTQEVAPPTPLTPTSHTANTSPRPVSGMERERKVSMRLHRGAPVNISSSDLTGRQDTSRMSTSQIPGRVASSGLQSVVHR
test: ScanMAX Kinase analysis panel, CSNK1D
Assay type: binding
test_conditions: 1 μM in DMSO; <35% considered inhibitory; read-out: percent control (% control), CSNK1D
Give your result in % as a bare value.

CNc1nc(Nc2ccc(P3(=O)CCN(C4CC4)CC3)cc2OC)nc2[nH]cc(C(F)(F)F)c12 [Example 411]    14
CCNc1nc(Nc2ccc(S(=O)(=O)N3CCC(N4CCOCC4)CC3)cc2OC)nc2[nH]cc(C(F)(F)F)c12 [Example 158, 2,2,2-trifluoroacetate]    5.3
CCCNc1nc(Nc2ccc(S(=O)(=O)N3CCC(N4CCOCC4)CC3)cc2OC)nc2[nH]cc(C(F)(F)F)c12 [Example 161]    15
C=CCNc1nc(Nc2ccc(S(=O)(=O)N3CCC(N4CCOCC4)CC3)cc2OC)nc2[nH]cc(C#N)c12 [Example 361]    3.9
CNc1nc(Nc2ccc(S(=O)(=O)N3CCC(N4CCOCC4)CC3)cc2OC)nc2[nH]cc(C(F)(F)F)c12 [Example 157, 2,2,2-trifluoroacetate]    2.9
O=C(c1ccc(Nc2nc(C3CC3)c3c(C(F)(F)F)c[nH]c3n2)c2c1OCCO2)N1CCC(N2CCOCC2)CC1 [Example 228]    45

The record that follows has no remaining binding at 1 µM shown yet.
Q: Name the recorded remaining binding at 1 µM of the item CNc1nc(Nc2ccc(C(=O)N3CCC(N4CCOCC4)CC3)c3c2OCCO3)nc2[nH]cc(C(F)(F)F)c12 [Example 238] in your answer.
Result: 16
